The measurements presented in this section are drawn from patent US9499535B2.

# measured.on: SYK kinase (Homo sapiens, UniProt P43405)
# Construct: purchased Invitrogen, Carlsbad
# procedure.text: SYK assay (OMNIA Kinase Assay, Invitrogen)
# Format: biochemical
# condition: apparent Ki calculated from the IC50 using the Cheng-Prusoff equation; 1 mM ATP, 10 μM Peptide Substrate; read-out: SYK Activities: Ki
Measured Ki values are reported for all entries that follow.
property.name: Ki

COc1ccc2nc(Nc3ccc(CN4CCOCC4)cc3)c3n[nH]cc3c2c1 [Example #237]: 0.01 to 0.1 µM
COc1ccc2nc(Nc3ccc(NC(=O)c4ccc(F)cc4)cc3)c3n[nH]cc3c2c1 [Example #358]: < 0.01 µM
COc1ccc2nc(Nc3cccc(-n4nccn4)c3)c3n[nH]cc3c2c1 [Example #347]: 0.1 to 1 µM
O=C(c1ccc(Nc2nc3ccc(I)cc3c3cn[nH]c23)cc1)N1CCCC1 [Example #356]: 0.1 to 1 µM
COc1cccc2nc(Nc3ccc(N4CCN(C5CC5)CC4)cc3)c3n[nH]cc3c12 [Example #243]: 0.01 to 0.1 µM
COc1ccc(Nc2nc3cc(OC)c(OC)cc3c3c[nH]nc23)cc1OC [Example #122]: 0.01 to 0.1 µM
COc1ccc2nc(Nc3ccc(OC)nc3)c3n[nH]cc3c2c1 [Example #206]: 0.01 to 0.1 µM
COc1ccc2nc(Nc3ccc4c(c3)N=C(NCCc3ccccc3)CO4)c3n[nH]cc3c2c1 [Example #314]: 0.01 to 0.1 µM
COc1ccc2nc(Nc3ccc(N4CCOCC4)c(F)c3)c3n[nH]cc3c2c1 [Example #181]: 0.01 to 0.1 µM
COc1ccc2nc(Nc3ccc(S(N)(=O)=O)cc3)c3n[nH]cc3c2c1 [Example #132]: 0.01 to 0.1 µM
O=C1COc2ccc(Nc3nc4cc(F)ccc4c4cn[nH]c34)cc2N1 [Example #334]: 0.01 to 0.1 µM
COc1ccc2nc(Nc3cnc(N4CCN(C)CC4)nc3)c3n[nH]cc3c2c1 [Example #223]: 0.1 to 1 µM

---

Entries and their IC50
# measured.on: LRRK2 (Homo sapiens)
# Sequence (Q5S007 970-2527 limits assumed): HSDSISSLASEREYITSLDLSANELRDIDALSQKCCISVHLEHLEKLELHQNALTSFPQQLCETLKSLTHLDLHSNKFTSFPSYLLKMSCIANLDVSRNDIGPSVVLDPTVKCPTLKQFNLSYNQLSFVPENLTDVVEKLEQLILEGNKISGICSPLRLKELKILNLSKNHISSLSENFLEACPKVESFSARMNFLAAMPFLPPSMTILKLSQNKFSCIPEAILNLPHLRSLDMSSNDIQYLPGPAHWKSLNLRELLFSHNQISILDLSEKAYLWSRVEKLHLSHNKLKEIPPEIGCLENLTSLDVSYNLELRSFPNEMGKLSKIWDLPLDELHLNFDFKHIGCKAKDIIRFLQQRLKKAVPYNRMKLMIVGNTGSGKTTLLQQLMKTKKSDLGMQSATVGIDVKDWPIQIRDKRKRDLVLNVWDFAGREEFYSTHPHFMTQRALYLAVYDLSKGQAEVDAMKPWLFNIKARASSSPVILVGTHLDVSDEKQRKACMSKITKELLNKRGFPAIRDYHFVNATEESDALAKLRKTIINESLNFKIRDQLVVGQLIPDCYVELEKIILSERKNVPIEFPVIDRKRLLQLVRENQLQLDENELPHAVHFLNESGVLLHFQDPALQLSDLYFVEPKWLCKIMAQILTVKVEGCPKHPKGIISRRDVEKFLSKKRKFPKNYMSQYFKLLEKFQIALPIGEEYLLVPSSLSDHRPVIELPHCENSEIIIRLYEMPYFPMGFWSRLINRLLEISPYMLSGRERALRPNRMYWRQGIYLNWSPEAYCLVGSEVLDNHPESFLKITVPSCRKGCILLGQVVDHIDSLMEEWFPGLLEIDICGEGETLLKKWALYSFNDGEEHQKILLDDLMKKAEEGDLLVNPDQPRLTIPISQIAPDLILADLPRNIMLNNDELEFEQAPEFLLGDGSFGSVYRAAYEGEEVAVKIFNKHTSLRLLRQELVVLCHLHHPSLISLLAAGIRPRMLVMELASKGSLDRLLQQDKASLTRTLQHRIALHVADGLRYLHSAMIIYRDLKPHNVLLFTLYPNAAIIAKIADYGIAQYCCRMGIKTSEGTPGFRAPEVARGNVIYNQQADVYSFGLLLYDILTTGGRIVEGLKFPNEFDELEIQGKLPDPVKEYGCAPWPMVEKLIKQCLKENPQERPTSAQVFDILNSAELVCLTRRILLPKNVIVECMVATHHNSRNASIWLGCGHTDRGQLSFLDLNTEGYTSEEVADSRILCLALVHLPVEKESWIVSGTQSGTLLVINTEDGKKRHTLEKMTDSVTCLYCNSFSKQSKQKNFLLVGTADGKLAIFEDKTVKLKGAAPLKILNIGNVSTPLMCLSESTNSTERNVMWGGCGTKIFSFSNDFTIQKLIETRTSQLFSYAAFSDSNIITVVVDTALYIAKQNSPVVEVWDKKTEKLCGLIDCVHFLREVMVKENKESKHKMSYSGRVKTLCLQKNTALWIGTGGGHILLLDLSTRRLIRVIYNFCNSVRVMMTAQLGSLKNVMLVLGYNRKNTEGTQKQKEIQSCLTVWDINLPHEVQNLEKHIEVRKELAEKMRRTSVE
# procedure.text: LRRK2 assay (LanthaScreen Eu Kinase Binding Assay)
# condition: 5 nM LRRK2, 10 nM tracer 236, RT 1 h; read-out: LRRK2 Activites: IC50
property.name: IC50

COc1ccc2nc(Nc3ccc(CC(N)=O)cc3)c3[nH]ncc3c2c1: 100 to 1000 nM
COc1ccc2nc(Nc3ccc4c(c3)n(C)c(=O)n4C)c3n[nH]cc3c2c1: 100 to 1000 nM
COc1ccc2nc(Nc3ccc4c[nH]nc4c3)c3n[nH]cc3c2c1 [Example #74]: 10 to 100 nM

---

As a worked illustration, we turn to Ki data collected for SYK kinase (Homo sapiens).
property.name: Ki

COc1ccc2nc(Nc3ccc(N4CCN(C)CC4)c(C)c3)c3n[nH]cc3c2c1 [Example #183]: 10 to 100 nM
COc1ccc2nc(Nc3ccc(N4CCOCC4)cc3C)c3n[nH]cc3c2c1 [Example #191]: 100 to 1000 nM
COc1cc2nc(Nc3cc(C4CC4)[nH]n3)c3n[nH]cc3c2cc1OC [Example #150]: 10 to 100 nM
COc1ccc2nc(Nc3ccc(N4CCNCC4)cc3)c3n[nH]cc3c2c1 [Example #184]: < 10 nM
COc1ccc2nc(Nc3ccc(OCC(=O)O)cc3)c3n[nH]cc3c2c1 [Example #290]: 10 to 100 nM
c1ccc(Nc2nc3ccccc3c3cn[nH]c23)nc1 [Example #28]: 100 to 1000 nM
COc1cccc2c1nc(Nc1cc(C3CC3)[nH]n1)c1n[nH]cc12 [Example #169]: < 10 nM
COc1cc2nc(Nc3ccc(NC(=O)Nc4cccc(C)c4)cc3)c3n[nH]cc3c2cc1OC [Example #299]: 100 to 1000 nM

---

Form field: pIC50 (one value per entry).
# measured.on: LRRK2 (Homo sapiens)
# procedure.text: LRRK2 assay (LanthaScreen Eu Kinase Binding Assay)
# condition: 5 nM LRRK2, 10 nM tracer 236, RT 1 h; read-out: LRRK2 Activites: IC50
pIC50: −log10 of the molar value.
property.name: pIC50

CCOc1cc2nc(Nc3ccc4cn[nH]c4c3)c3n[nH]cc3c2cc1OCC: 6.00 to 7.00
COc1ccc2nc(Nc3cccc(N4CCNCC4)c3)c3n[nH]cc3c2c1: 6.00 to 7.00
COc1ccc2nc(Nc3cccc(N4CCOCC4)c3)c3[nH]ncc3c2c1: 6.00 to 7.00
COc1ccc2nc(Nc3cc(-c4ccccc4)n[nH]3)c3n[nH]cc3c2c1: > 8.00
COc1cccc2c1nc(Nc1ccc3[nH]c(C)nc3c1)c1n[nH]cc12: 6.00 to 7.00
Cc1[nH]nc2c(Nc3ccc(N4CCN(C)CC4)cc3)nc3ccccc3c12: 6.00 to 7.00
COc1cccc2c1nc(Nc1cc(C3CC3)[nH]n1)c1n[nH]cc12: 7.00 to 8.00
COc1ccc2nc(Nc3ccc4nc(C)[nH]c4c3)c3n[nH]cc3c2c1: 6.00 to 7.00
COc1ccc2nc(Nc3ccc4c(c3)NC(=O)CS4)c3[nH]ncc3c2c1: 7.00 to 8.00
COc1ccc2nc(Nc3ccc(-c4nnn[nH]4)cc3)c3[nH]ncc3c2c1: 6.00 to 7.00

---

Catalogue of pIC50 readings, one per entry.
# measured.on: UniProt Q5S007
# procedure.text: LRRK2 assay (LanthaScreen Eu Kinase Binding Assay)
# condition: 5 nM LRRK2, 10 nM tracer 236, RT 1 h; read-out: LRRK2 Activites: IC50
pIC50: −log10 of the molar value.
property.name: pIC50

COc1ccc2nc(Nc3ccc(S(=O)(=O)N(C)C)cc3)c3n[nH]cc3c2c1 [Example #343]: 6.00 to 7.00
COc1ccc2nc(Nc3ccc4c(c3)COC4)c3n[nH]cc3c2c1 [Example #147]: 7.00 to 8.00
COc1ccc2nc(Nc3ccc(O)c(O)c3)c3n[nH]cc3c2c1 [Example #162]: 6.00 to 7.00
COc1ccc2nc(Nc3ccc(N4CCNCC4)cc3)c3n[nH]cc3c2c1 [Example #184]: 6.00 to 7.00
COc1ccc2nc(Nc3ccc(NC(=O)C(F)(F)F)cc3)c3n[nH]cc3c2c1 [Example #312]: 6.00 to 7.00
COc1ccc2nc(Nc3ccc4c(c3)NCC(C)(C)S4)c3n[nH]cc3c2c1 [Example #88]: > 8.00
COc1ccc2nc(Nc3ccc4c(c3)NC(=O)CC4)c3n[nH]cc3c2c1 [Example #93]: > 8.00
COc1ccc2nc(Nc3ccc(N4CCN(C)CC4)cc3)c3n[nH]cc3c2c1 [Example #42]: 7.00 to 8.00
CN1CCN(c2ccc(Nc3nc4ccc(I)cc4c4cn[nH]c34)cc2)CC1 [Example #333]: 6.00 to 7.00
Brc1ccc2nc(Nc3ccc(N4CCOCC4)cc3)c3n[nH]cc3c2c1 [Example #115]: 6.00 to 7.00
COc1ccc2nc(Nc3ccc(C4=NCCN4)cc3)c3n[nH]cc3c2c1 [Example #86]: 6.00 to 7.00
COc1ccc2nc(Nc3cccc(OCCN4CCNCC4)c3)c3n[nH]cc3c2c1 [Example #229]: 6.00 to 7.00
COc1cc(OC)c2nc(Nc3ccc(OC)c(OC)c3)c3n[nH]cc3c2c1 [Example #251]: 6.00 to 7.00
COc1ccc2nc(Nc3ccc(C(=O)N4CCOCC4)cc3)c3n[nH]cc3c2c1 [Example #232]: 6.00 to 7.00
CCN1CCN(c2ccc(Nc3nc4ccc(OC)cc4c4c[nH]nc34)cc2)CC1 [Example #187]: 7.00 to 8.00
